- targetUnderTest: Proteasome component C5 (Homo sapiens) (UniProt P20618)
- Sequence (P20618 whole entry): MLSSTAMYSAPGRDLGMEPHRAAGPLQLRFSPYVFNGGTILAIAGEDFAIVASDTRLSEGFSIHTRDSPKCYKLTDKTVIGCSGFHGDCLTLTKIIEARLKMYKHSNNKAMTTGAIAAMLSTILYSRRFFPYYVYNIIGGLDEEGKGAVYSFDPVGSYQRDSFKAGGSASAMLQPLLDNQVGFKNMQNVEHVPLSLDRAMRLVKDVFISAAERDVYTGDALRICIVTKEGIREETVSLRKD
- measurementProtocol: Inhibition of 26S proteasome beta 1 in human HEK293 cell lysate assessed as residual activity at […] after 1 hr
- Format: cell-free
Please go through the items and note down their Activity.
Give bare numbers, in %.

Below, 5 compounds whose answers are already recorded.
CC(C)C[C@H](NC(=O)[C@H](Cc1c(F)c(F)c(F)c(F)c1F)NC(=O)c1cnccn1)B1OC2C[C@@H]3C[C@@H](C3(C)C)[C@]2(C)O1 (some centres not stated)    92.1
CC(C)C[C@H](NC(=O)[C@H](Cc1cc(C(F)(F)F)cc(C(F)(F)F)c1)NC(=O)c1cnccn1)B1OC2C[C@@H]3C[C@@H](C3(C)C)[C@]2(C)O1 (some centres not stated)    79.1
CC(C)C[C@H](NC(=O)[C@H](Cc1ccccc1)NC(=O)[C@H](Cc1ccccc1)NC(=O)[C@H](Cc1ccccc1)N=[N+]=[N-])C(=O)[C@@]1(C)CO1    104
CC(C)C[C@H](NC(=O)[C@H](Cc1ccccc1)NC(=O)[C@H](Cc1cc(C(F)(F)F)cc(C(F)(F)F)c1)NC(=O)[C@H](Cc1ccccc1)N=[N+]=[N-])C(=O)[C@@]1(C)CO1    116
CC(C)C[C@H](NC(=O)[C@H](Cc1ccccc1)NC(=O)[C@H](Cc1c(F)c(F)c(F)c(F)c1F)NC(=O)[C@H](Cc1ccccc1)N=[N+]=[N-])C(=O)[C@@]1(C)CO1    83.2

Dear reader, for each entry below, please note its Activity.
1. CC(C)C[C@H](NC(=O)[C@H](Cc1c(F)c(F)c(F)c(F)c1F)NC(=O)[C@H](Cc1ccccc1)NC(=O)[C@H](Cc1ccccc1)N=[N+]=[N-])C(=O)[C@@]1(C)CO1
2. CC(C)C[C@H](NC(=O)[C@H](Cc1cc(C(F)(F)F)cc(C(F)(F)F)c1)NC(=O)[C@H](Cc1ccccc1)NC(=O)[C@H](Cc1ccccc1)N=[N+]=[N-])C(=O)[C@@]1(C)CO1

## Output
1: 105; 2: 103
